- experimentalProtocol: CREB reporter modulators without forskolin, primary screen, cell-based, PC12, CRE-LacZ reporter, unstimulated (AID 1145)
- reportedConditions: no forskolin, luminescence, 4.5 h, higher = more signal, called active from +8 up or from −8 down
assayEndpoint: z-score
// return a plain number; no unit text

## Input Determine from records and report z-score for C[C@@H]1CC[C@H]2C(=O)O[C@@H](COc3ccc(C(C)(C)C)cc3)CN2[C@H]1c1ccc(Br)cc1
## Output 0.345

## Input Determine from records and report z-score for COC(=O)[C@H](C)NC(=O)CCC1CC(OC(=O)NCc2cccc3ccccc23)CC2(CCCC(COC(=O)NCCOc3ccccc3)O2)O1 (some centres undefined)
## Output -0.709

## Input Determine from records and report z-score for COC(=O)[C@H](C)NC(=O)CCC1CC(OC(=O)NCc2cccc3ccccc23)CC2(CCCC(COC(=O)NCCCN3CCCC3=O)O2)O1 (some centres undefined)
## Output -0.438

## Input Determine from records and report z-score for CCN1C(=O)[C@H]2[C@@H]3C(=CC[C@H]2C1=O)C(=O)[C@H]1O[C@H]1[C@H]3O
## Output 2.79

Numbers sourced from PubChem BioAssay.
